- TARGET UNDER TEST: androgen receptor (AR-LBD) (Rattus norvegicus)
- Construct: 5 μL of 2×AR-LBD/Fluoromone AL Red Complex contained in the kit; purchased Invitrogen
- Sequence (P15207 651-882 limits assumed): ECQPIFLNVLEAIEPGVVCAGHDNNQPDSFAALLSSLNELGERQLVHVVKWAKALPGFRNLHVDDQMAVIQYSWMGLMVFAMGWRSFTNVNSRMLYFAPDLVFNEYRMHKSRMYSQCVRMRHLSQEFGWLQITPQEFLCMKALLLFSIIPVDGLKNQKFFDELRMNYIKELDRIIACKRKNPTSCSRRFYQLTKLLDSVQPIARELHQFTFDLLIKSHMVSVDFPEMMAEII
- ASSAY: Evaluation of androgen receptor affinity (PolarScreen Androgen Receptor Competitor Assay Kit, Red; fluorescence polarization)
- SETUP CONDITIONS: 22° C. for 5 hours, relative to binding rate of 1 μM DHT, read-out: AR affinity (pEC50) (converted)
Measured EC50 values are reported for all entries that follow.

COMPOUND: CS(=O)(=O)NC(=O)c1nc(N(Cc2ccc(C(F)(F)F)cc2)c2ccc(C#N)cc2)sc1Cl
VALUE RELATION SIGN: =
EC50 [nM]: 31.6

COMPOUND: CCc1oc(N(Cc2ccccc2OC(F)F)c2ccc(C#N)cc2)nc1C(=O)NS(C)(=O)=O
VALUE RELATION SIGN: =
EC50 [nM]: 158

COMPOUND: Cc1sc(N(Cc2ccc(OC(F)(F)F)cc2)c2ccc(C#N)cc2)nc1C(=O)NS(=O)(=O)CCCN1CCOCC1
VALUE RELATION SIGN: >
EC50 [nM]: 2000

COMPOUND: Cc1cc(CN(CCc2ccc(OC(F)(F)F)cc2)c2nc(C(=O)NS(C)(=O)=O)c(C)s2)no1
VALUE RELATION SIGN: =
EC50 [nM]: 200

COMPOUND: COCCCS(=O)(=O)NC(=O)c1nc(N(Cc2ccc3ncsc3c2)c2ccc(C#N)cc2)sc1C
VALUE RELATION SIGN: =
EC50 [nM]: 158

COMPOUND: Cc1sc(N(CCc2ccc(Cl)cc2)Cc2ccc(OC(F)(F)F)cc2)nc1C(=O)NS(=O)(=O)Cc1cccnc1
VALUE RELATION SIGN: =
EC50 [nM]: 31.6

COMPOUND: Cc1sc(N(C)Cc2ccccc2)nc1C(=O)NS(C)(=O)=O
VALUE RELATION SIGN: >
EC50 [nM]: 2000

COMPOUND: Cc1sc(N(CCC2CCCC(O)C2)c2ccc(C#N)cc2)nc1C(=O)NS(C)(=O)=O (centres unmarked)
VALUE RELATION SIGN: =
EC50 [nM]: 316
